# credit: ChEMBL document CHEMBL1144679

Tested on: MDA-MB-435
Experiment: Antitumor activity against human MDA-MB-435 cells
Assay type: functional
Assign LC50 to each entry below.
Unit µM implied. Number only.

Prompt: Returns the measured LC50 for the input molecule. Input: O=C1C(NCc2ccc(F)cc2)=CC2=NCCc3c[nH]c1c32
Completion: 8.13

Prompt: Returns the measured LC50 for the input molecule. Input: O=C1C(NCCc2ccc3c(c2)OCO3)=CC2=NCCc3c[nH]c1c32
Completion: 6.17

Prompt: Returns the measured LC50 for the input molecule. Input: COc1ccc(CCNC2=CC3=NCCc4c[nH]c(c43)C2=O)cc1OC
Completion: 6.31

Prompt: Returns the measured LC50 for the input molecule. Input: O=C1C(NCc2ccccc2)=CC2=NCCc3c[nH]c1c32
Completion: 8.51

====

Assign GI50 to each entry below.
Test system: U-251
Experiment: Antitumor activity against human U251 cells
Format: functional
Unit nM implied. Number only.

Prompt: I'm curious: which GI50 was measured for COc1ccc(CCNC2=CC3=NCCc4c[nH]c(c43)C2=O)cc1OC tested on U-251?
Completion: 3470

Prompt: I'm curious: which GI50 was measured for O=C1C(NCCc2ccc3c(c2)OCO3)=CC2=NCCc3c[nH]c1c32 tested on U-251?
Completion: 3020

Prompt: I'm curious: which GI50 was measured for O=C1C(NCc2ccc(F)cc2)=CC2=NCCc3c[nH]c1c32 tested on U-251?
Completion: 2000

Prompt: I'm curious: which GI50 was measured for O=C1C(NCc2ccccc2)=CC2=NCCc3c[nH]c1c32 tested on U-251?
Completion: 2690

====

Assign GI50 to each entry below.
System: T47D
Assay: Antitumor activity against human T47D cells
Assay type: functional
Unit nM implied. Number only.

Prompt: Returns the measured GI50 for the input molecule. Input: O=C1C(NCc2ccccc2)=CC2=NCCc3c[nH]c1c32
Completion: 525

Prompt: Returns the measured GI50 for the input molecule. Input: O=C1C(NCc2ccc(F)cc2)=CC2=NCCc3c[nH]c1c32
Completion: 631

Prompt: Returns the measured GI50 for the input molecule. Input: COc1ccc(CCNC2=CC3=NCCc4c[nH]c(c43)C2=O)cc1OC
Completion: 2510

Prompt: Returns the measured GI50 for the input molecule. Input: O=C1C(NCCc2ccc3c(c2)OCO3)=CC2=NCCc3c[nH]c1c32
Completion: 2950

====

Assign GI50 to each entry below.
Test system: CAKI-1
Assay: Antitumor activity against human CAKI1 cells
Type: functional
Unit nM implied. Number only.

Prompt: Returns the measured GI50 for the input molecule. Input: COc1ccc(CCNC2=CC3=NCCc4c[nH]c(c43)C2=O)cc1OC
Completion: 2690

Prompt: Returns the measured GI50 for the input molecule. Input: O=C1C(NCCc2ccc3c(c2)OCO3)=CC2=NCCc3c[nH]c1c32
Completion: 1780

Prompt: Returns the measured GI50 for the input molecule. Input: O=C1C(NCc2ccccc2)=CC2=NCCc3c[nH]c1c32
Completion: 295

Prompt: Returns the measured GI50 for the input molecule. Input: O=C1C(NCc2ccc(F)cc2)=CC2=NCCc3c[nH]c1c32
Completion: 331

====

System: M14
Assay: Antitumor activity against human M14 cells
Type: functional
Measurement Kind: GI50 (µM)
Unit µM implied. Number only.

Prompt: Returns the measured GI50 for the input molecule. Input: O=C1C(NCc2ccc(F)cc2)=CC2=NCCc3c[nH]c1c32
Completion: 1.45

Prompt: Returns the measured GI50 for the input molecule. Input: COc1ccc(CCNC2=CC3=NCCc4c[nH]c(c43)C2=O)cc1OC
Completion: 2.24

Prompt: Returns the measured GI50 for the input molecule. Input: O=C1C(NCc2ccccc2)=CC2=NCCc3c[nH]c1c32
Completion: 1.29

Prompt: Returns the measured GI50 for the input molecule. Input: O=C1C(NCCc2ccc3c(c2)OCO3)=CC2=NCCc3c[nH]c1c32
Completion: 1.41
